- Tested on: M14 melanoma
- Run description: NCI-60 one-dose screen, 48 h (100 = growth as untreated, 0 = no growth, -100 = all killed)
- Stated conditions: 10 µM unless noted
This is part of a sample that, as a whole, favours compounds with a hit. Of some 83,000 tested, about 20% had one in any assay. Activity calls are given as the source filed them. How the source made its calls: active means growth percent below 10; inactive means the rest.
Below is a list of entries, each paired with its recorded growth value.

Past entries and their recorded results:
1. C=C1CC2(OC1=O)C(=O)N(CCCCCCCN1C(=O)C3(CC(=C)C(=O)O3)c3ccccc31)c1ccccc12 (stereo unspecified) | 36.5% (inactive)
2. COc1ccc(C2Nc3ccccc3-n3cccc32)cc1 (stereo unspecified) | 99.3% (inactive)
3. CCCCN(CC)CCCCCCCCCCN1CCCc2cc(OC)ccc21 | 88.2% (inactive)
4. O=C(COc1cccc(/C=C2/Oc3ccccc3C2=O)c1)Nc1nccs1 | 99.7% (inactive)
5. COC1/C=C\OC2(C)Oc3c(C)c(O)c4c(O)c(c(CN(C)CCO)c(O)c4c3C2=O)NC(=O)/C(C)=C\C=C/C(C)C(O)C(C)C(O)C(C)C(OC(C)=O)C1C (stereo unspecified) | 105% (inactive)
6. CNCCCn1c2c(c3ccc([N+](=O)[O-])cc3c1=O)C(=O)c1cc(OC)cnc1-2 | -13.1% (active)

Q) // returns reported growth for input "Oc1ccccc1/C=N/Nc1ccc2ccccc2n1"
A) 52.3% (inactive)

Q) // returns reported growth for input "C/C(=C(/c1ccc(O)cc1)c1ccc(Cl)cc1)c1ccccc1"
A) -78.1% (active)

Q) // returns reported growth for input "Brc1cccc(-c2cc(-c3ccc4c(c3)OCCO4)[nH]n2)c1"
A) 20.9% [25 µM] (inactive)

Q) // returns reported growth for input CCN(CC)CCCC(C)N/C(=C1\C(=O)NC(=O)\C1=C(/NC(C)CCCN(CC)CC)c1cccc(OC)c1)c1cccc(OC)c1 (stereo unspecified)
A) -75.1% (active)

Q) // returns reported growth for input "Cc1ccn2c(-c3csc(Nc4cccc(O)c4)n3)c(C)nc2c1"
A) 16% (inactive)

====

Below is a list of entries, each paired with its recorded growth value.
- Test system: SF-539 CNS
- Run description: NCI-60 one-dose screen, 48 h (100 = growth as untreated, 0 = no growth, -100 = all killed)
- Stated conditions: 10 µM unless noted
- Description: Cells are grown in 96 well plates and exposed to the test compound for 48 hours. Compounds are tested at a single concentration, which is 10^-5 M for most compounds. The reported endpoint is percent growth (GI% or GIPRCNT), where numbers from 0 - 100% represent growth inhibition, and numbers from -100% - 0 represent cell death. For example, a value of 40 represents 60% growth inhibition. A value of 0 means no net growth occurred over the course of the experiment. […]
The panel holds about 83,000 compounds, 20% with a hit somewhere; the sample as a whole holds those more often.
Just the number please, in %, no unit attached.

Past entries and their recorded results:
1) COc1ccc(-c2nn(-c3ccccc3)cc2/C=C/C(=O)OCc2cn(-c3ccc(F)c(Cl)c3)nn2)cc1 | 98.7
2) CC(=O)OC1Oc2cc(C)c(C)cc2-c2oc(=O)c(-c3cc4ccc(N(C)C)cc4oc3=O)cc21 (stereo not given) | 81.4
3) CCOC(=O)CC(C)=N | 97.6
4) Cc1ccc2c(c1)C(=O)/C(=C/c1ccc(OCC(=O)c3ccccc3)cc1)O2 | 92.9
5) CC1(C)OCC2OC3(C(=O)O)OC(C)(C)OC3C2O1 (stereo not given) | 108

Q) // returns reported growth for input CCCCCCCCCCCCNC(=O)[C@H]1CSC(c2ccc(OC)c(F)c2)N1 (stereo not given in full)
A) -94.3

Q) // returns reported growth for input "CCN1CCN(Cc2ccc(NC(=O)Nc3nc4ccc(Oc5ccnc(C(=O)NC)c5)cc4s3)cc2C(F)(F)F)CC1"
A) -85.2

Q) // returns reported growth for input "CNC(=S)N/N=C/CSC/C=N/NC(=S)NC"
A) 105

Q) // returns reported growth for input CC1CN(Cc2ccco2)C(=S)N(c2ccccc2)C1=O (stereo not given)
A) 90.8

Q) // returns reported growth for input "O=C1Nc2c(ccc(Cl)c2Cl)/C1=C/c1cc(Br)c(O)c(Br)c1"
A) 51.6

Q) // returns reported growth for input "CCOC(=O)Cc1cnn(C)c1NC(=O)c1ccc(Cl)cc1NC(C)=O"
A) 101

Q) // returns reported growth for input "CC(C)c1c(C(=O)Nc2ccccc2)c(-c2ccccc2)c(-c2ccc(F)cc2)n1CC[C@@H]1CC=CC(=O)O1"
A) -18.5

Q) // returns reported growth for input "COc1ccc(/C=N\NC(=O)c2ccncc2)cc1O"
A) 107

Q) // returns reported growth for input "Cc1ccc(Nc2c(C(N)=O)cnc3ccc(-c4csc(N)n4)cc23)cc1"
A) 92

Q) // returns reported growth for input "CCN(CC)CC#CCOC(=O)[C@]1(C)CCC[C@@]2(C)[C@H]1CC(C=O)=C1C=C(C(C)C)CC[C@@H]12"
A) 49.1

Q) // returns reported growth for input "O=C1CCc2c(sc3[nH]c(=S)n(Cc4ccccc4)c(=O)c23)C1"
A) -12.6

Q) // returns reported growth for input "COc1cc(OC)c(/C=C/c2cc[n+](C)c3ccccc23)c(OC)c1"
A) 12

Q) // returns reported growth for input "CC1=N/C(=C\c2cccc(Br)c2)C(=O)O1"
A) 115

Q) // returns reported growth for input CC1=C(C)C(=O)OC([C@](C)(O)[C@]2(O)CC[C@@]3(O)[C@@H]4C[C@H]5O[C@]56CC=CC(=O)[C@]6(C)[C@H]4CC[C@]23COC(=O)c2ccc(C)o2)C1 (stereo not given in full)
A) -91.2

Q) // returns reported growth for input "CCOC(=S)SCc1ccc(Cl)cc1"
A) 114

Q) // returns reported growth for input "O=C1/C(=C\c2cn(C(=O)c3ccc(Cl)cc3)c3ccccc23)c2ccccc2N1c1c(Cl)cccc1Cl"
A) 104

Q) // returns reported growth for input "O=C1C=CC(=O)N1c1ccc(Cc2ccc(N3C(=O)C=CC3=O)cc2)cc1"
A) 93.4

Q) // returns reported growth for input "COc1ccc(/C=C2\N=C3SC=C(N)N3C2=O)cc1"
A) 26.7

Q) // returns reported growth for input "O=C1/C(=C/c2ccc(Cl)c(Cl)c2)CN(C(=O)CCN2CCC(=NO)CC2)C/C1=C\c1ccc(Cl)c(Cl)c1"
A) -93.7

Q) // returns reported growth for input "CC(=O)CC(C)(C)c1ccc(Cl)cc1"
A) 102

Q) // returns reported growth for input O=C(NC(Cc1ccccc1)C(=O)CCl)OCc1ccccc1 (stereo not given)
A) 62.4

Q) // returns reported growth for input "CC1=CC(=O)CC(C)(C)[C@@]1(O)/C=C/[C@@H](C)O"
A) 102

Q) // returns reported growth for input "COc1cc(-c2nc3ccccc3s2)ccc1NC(=O)COc1ccc(Cl)cc1"
A) 26.7

Q) // returns reported growth for input "COc1ccc(-n2c(C)nc3c(c(C)nn3-c3ccccc3)c2=O)cc1"
A) -1.28

Q) // returns reported growth for input CCN(CC)CCCC(C)N/C(=C1\C(=O)NC(=O)\C1=C(/NC(C)CCCN(CC)CC)c1cccc(OC)c1)c1cccc(OC)c1 (stereo not given)
A) -80.6

Q) // returns reported growth for input "CCCCCn1cnc2c(=S)nc[nH]c21"
A) 91

Q) // returns reported growth for input "COc1cccc(/C=C2/C(=O)N(Cc3ccco3)SC2=S)c1OC"
A) 102
